Form field: GI50 (one value per entry).
System: OVCAR-3
assayDetails: NCI tumour cell line growth inhibition, 48 h
Active and inactive are the calls of the source. No stated cut-off is given here; in the data, active = GI50 up to about 1.1 µM and inactive = higher.

- compound: "CC(C)=CC[S+]([O-])c1ccccc1NC1=CC(=O)CC(C)(C)C1 (configuration not stated)"
  GI50: "> 100 µM (inactive)"
- compound: "Cc1ccc(C2(c3ccc(Cl)cc3)c3ccccc3C3=NCCN32)cc1 (configuration not stated)"
  GI50: "10.3 µM (inactive)"

# input compound: Cc1cc(S(=O)(=O)Nc2nc(-c3ccccn3)n[nH]2)c(S)cc1Cl ; wanted: its GI50
17.2 µM (inactive)

Query (compound): CC1OC(OC2C(O[C@@H]3C[C@@H]4CC[C@@H]5[C@H](CC[C@]6(C)[C@@H]7[C@H](C[C@@H]56)O[C@]5(CC[C@@H](C)CO5)[C@H]7C)[C@@]4(C)C[C@H]3O)OC(CO)C(OC3OC(CO)C(O)C(O)C3O)C2O)C(O)C(O)C1O (some centres not stated) ; field requested: GI50
1.65 µM (inactive)

Recorded GI50 of CC1CN=C(Nc2ccccc2)S1 (configuration not stated) , please.
> 100 µM (inactive)

What does the record list as GI50 for CCCC(=O)N1CCN(c2ccc3c(c2)OC(C)O3)CC1 (configuration not stated) ?
> 100 µM (inactive)

# input compound: CCCCc1c2c(nc3c1CCCC3=O)CCCC2 ; wanted: its GI50
> 100 µM (inactive)
